molecular target: TAS2R14 (Homo sapiens, UniProt Q9NYV8); experiment: Calcium mobilization assay, cells transiently expressing TAS2R14; details: TAS2R14-expressing HEK293T cells, Fluo-4 calcium response; read-out: EC50 (half-maximal TAS2R14 activation)
Sequence (Q9NYV8 whole entry): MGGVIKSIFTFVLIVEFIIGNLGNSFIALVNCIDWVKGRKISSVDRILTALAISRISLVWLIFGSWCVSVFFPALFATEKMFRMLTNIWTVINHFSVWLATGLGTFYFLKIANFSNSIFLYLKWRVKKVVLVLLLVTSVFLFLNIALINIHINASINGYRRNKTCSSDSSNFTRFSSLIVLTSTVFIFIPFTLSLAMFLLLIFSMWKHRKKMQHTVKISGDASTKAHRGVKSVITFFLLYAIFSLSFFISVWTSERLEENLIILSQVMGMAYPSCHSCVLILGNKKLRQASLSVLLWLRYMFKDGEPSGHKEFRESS
Where a name gives a salt, the structure may show the parent alone.
ENDPOINT: EC50 (mM)
Could you give me the number in mM? Just the number is fine.

// lookup EC50 | system=TAS2R14 (Homo sapiens, UniProt Q9NYV8) | key= Cc1ncc(CO)c(CO)c1O [Vitamin B6, pyridoxine hydrochloride] 10.5

---

molecular target: TAS2R38 (Homo sapiens); test: Calcium mobilization assay, cells transiently expressing TAS2R38; conditions: TAS2R38-expressing HEK293T cells, Fluo-4 calcium response; read-out: EC50 (half-maximal TAS2R38 activation)
Sequence (P59533 whole entry): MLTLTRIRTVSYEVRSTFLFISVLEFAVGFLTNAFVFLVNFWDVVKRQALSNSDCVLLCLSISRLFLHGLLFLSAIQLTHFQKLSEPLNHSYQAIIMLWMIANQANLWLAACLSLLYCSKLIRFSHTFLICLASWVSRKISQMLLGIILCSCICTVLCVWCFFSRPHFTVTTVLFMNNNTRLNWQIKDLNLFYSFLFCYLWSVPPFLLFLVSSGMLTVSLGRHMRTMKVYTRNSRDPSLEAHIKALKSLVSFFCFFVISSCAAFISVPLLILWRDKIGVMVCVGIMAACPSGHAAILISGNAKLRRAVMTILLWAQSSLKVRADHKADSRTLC
ENDPOINT: EC50 (µM)
Could you give me the number in µM? Just the number is fine.

# EC50 lookup, item CC1=C(/C=C/C(C)=C/C=C/C(C)=C/C=O)C(C)(C)CCC1 290
